Read-out: Alkaline Phosphatase, Placental (ALPP) gene, ALPP (gene 250)
Assay: LTEA_HepaRG_ALPP: Life Technologies and Expression Analysis (LTEA) Assay for Alkaline Phosphatase, Placental (ALPP) gene using HepaRG (AID 2283468)
Conditions: mRNA level, 48 h; actives raise or lower the signal
Calls of active or inactive are those of the source. How the source made its calls: active means hit-call score of the fitted dose curve at least 0.9, where 1 is the maximum; inactive means score below 0.9.
PARAMETER_MEASURED: outcome

1. [O-][Cl+]O	inactive
2. Nc1ccc(Cl)cc1N	inactive
3. CCN(CC)N=O	inactive

====

Experiment: ATG_NF_kB_CIS: Attagene CIS-FACTORIAL HepG2 Assay for human Nuclear Factor Kappa B (NF-kB) (AID 2282991)
Details: HepG2 Attagene cis-factorial NF-kB reporter mRNA; actives raise or lower the signal
The source made the active and inactive calls. How the source made its calls: active means hit-call score of the fitted dose curve at least 0.9, where 1 is the maximum; inactive means score below 0.9.
Reply using exactly one outcome from t (active), f (inactive)

Query string: Outcome logged for CCN(CC)N=O in this assay:
Result string: f

Query string: Outcome logged for Cc1cccc(N)c1N in this assay:
Result string: f

Query string: Outcome logged for C=CCc1ccc2c(c1)OCO2 in this assay:
Result string: f

Query string: Outcome logged for O=C(N[C@H](c1ccccc1)[C@@H]1CN2CCC1CC2)c1c(Cl)ccc(C(F)(F)F)c1Cl in this assay:
Result string: f

Query string: Outcome logged for N#CC(Br)(Br)C(N)=O in this assay:
Result string: t

Query string: Outcome logged for Cc1ccc(N=C=O)cc1N=C=O in this assay:
Result string: f

Query string: Outcome logged for Cn1cc(-c2ccccc2)c(=O)c(-c2cccc(C(F)(F)F)c2)c1 in this assay:
Result string: t

Query string: Outcome logged for CC(C)(C)C(O)(CCc1ccc(Cl)cc1)Cn1cncn1 (centres undefined) in this assay:
Result string: f

Query string: Outcome logged for CC(C)N(Cc1ccccc1)C(=O)C(C)(C)C in this assay:
Result string: f

Query string: Outcome logged for [As]#[In] in this assay:
Result string: f

Query string: Outcome logged for CCCCCOC(=O)c1ccccc1C(=O)OCCCCC in this assay:
Result string: f

Query string: Outcome logged for c1ccc2c(c1)oc1ccccc12 in this assay:
Result string: f

Query string: Outcome logged for c1ccc(NNc2ccccc2)cc1 in this assay:
Result string: f

Query string: Outcome logged for Clc1ccc(C(c2ccc(Cl)cc2)C(Cl)Cl)cc1 in this assay:
Result string: f

====

Experiment: Tanguay_ZF_120hpf_YSE_legacy: (Legacy) Oregon State University Tanguay Lab 120 Hour Post-fertilization zebrafish Assay for Yolk Sac Edema (AID 2283634)
Inconclusive results are not listed. Active and inactive are the calls of the source. Rule for the calls: active = hit-call score of the fitted dose curve at least 0.9, where 1 is the maximum; inconclusive = response in the unintended direction; inactive = score below 0.9.
Reply using exactly one outcome from active, inactive

Query string: Outcome logged for O=[N+]([O-])C(Br)(CO)CO in this assay:
Result string: inactive

Query string: Outcome logged for O=P(OCCCl)(OCCCl)OCCCl in this assay:
Result string: inactive

Query string: Outcome logged for CCCCCOC(=O)c1ccccc1C(=O)OCCCCC in this assay:
Result string: inactive

Query string: Outcome logged for N#CC(Br)(Br)C(N)=O in this assay:
Result string: inactive

Query string: Outcome logged for OCCOCCO in this assay:
Result string: inactive

Query string: Outcome logged for O=C(Oc1ccc(Br)cc1)N1CCN2CCC1CC2 in this assay:
Result string: inactive

Query string: Outcome logged for O=C1CCCO1 in this assay:
Result string: inactive

Query string: Outcome logged for [As]#[In] in this assay:
Result string: inactive

Query string: Outcome logged for CN(C)c1ccc(C(=O)c2ccc(N(C)C)cc2)cc1 in this assay:
Result string: active

Query string: Outcome logged for ClC1=C(Cl)[C@]2(Cl)[C@H]3[C@H]([C@@H]4C=C[C@H]3C4)[C@@]1(Cl)C2(Cl)Cl in this assay:
Result string: inactive

From: PubChem BioAssay (EPA / NIEHS)
